B1: Pistol ribozyme (parent)
chain: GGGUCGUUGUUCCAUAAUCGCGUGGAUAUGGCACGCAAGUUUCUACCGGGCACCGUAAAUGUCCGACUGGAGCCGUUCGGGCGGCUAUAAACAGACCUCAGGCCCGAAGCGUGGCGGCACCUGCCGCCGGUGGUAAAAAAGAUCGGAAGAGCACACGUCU

variants of: B1; test: aptazyme ON/OFF ratio, guanine; higher = stronger switching; co-transcriptional cleavage with and without guanine
Give measured aptazyme ON/OFF ratio for each item. Keep answers brief.

Example entries and their recorded answers appear below.
* U7G U10G C12G | 1.09
* U7A U10A C13A | 1.07
* G9A U10A C13A | 1.41
* U7C U8G G9C U10G U11C C12G C13G | 1.22
* U8G G9A C12G C13G | 1.29

Go through the items and report each one's aptazyme ON/OFF ratio.
1. U7A U8G G9U U10C U11C C12A
2. U8G G9A U10G U11G C13G
3. U7A U8C G9U U10G U11A C12A C13U
4. U7A U8C G9U U10C U11G C12U

A.
1: 1.3; 2: 1.15; 3: 1.41; 4: 1.17

I need aptazyme ON/OFF ratio for every entry listed below, if you could help.
1. U7C U8G G9C U10C U11C C13G
2. U7C G9A U10G U11A C12A
3. U7G U8C G9C U10G C13U

A.
[1.03, 1.32, 1.33]

Could I get aptazyme ON/OFF ratio for every one of these entries?
1. U7C U8A G9C U10A U11A C12U C13U
2. U7C U8G G9U U10C U11C C13U
3. U7A U8G G9C U10C U11A C12U C13G
4. U7A U8C G9U U10G U11C C12G C13G

A.
[1.11, 1.03, 1.18, 1.17]

Please go through the list and note aptazyme ON/OFF ratio for each variant.
1. U7A U8A G9C U10C U11A C12U C13U
2. U8A U11G C12G C13A
3. U7G U10G U11A C12A C13A
4. U8C U10G C13G

A.
1.09
1.17
1.14
1.15

For the 2 variants below, give their aptazyme ON/OFF ratio values.
1. U7G G9U U10G U11G C13G
2. U7A U8G G9C U10G U11A C13U

A.
1. 1.18
2. 1.15
